- assay.system: T1, HLA DQA1*0101:DQB1*0501
- T1 chain 1: not shown
- T1 chain 2: not shown
- procedure.details: REVEAL class II binding assay (cell-free)
readout.kind: REVEAL 0 hrs (% of positive control signal)
// return just the number, without any unit appended

# count of solved cases: 3
VGKMIGGIGRFYIQM (modifications not checked) [Peptide #5 (Common CP sequence)]
43.6
LILYDKEEMRRIWRQ (modifications not checked) [Peptide #4 (X181 NP fragment)]
0.1
IDPFKLLQNSQVVSL (modifications not checked) [Peptide #8 (Common CP sequence)]
0

Continue with the next binder.
## Task I would be grateful if you could share the reported REVEAL 0 hrs (% of positive control signal) for RELILYDKEEMRRIWRQANNG (modifications not checked) [Peptide #2 (X181 NP fragment)] .
## Result 1.1
